The reported numbers originate from PubChem BioAssay (NCI).

- Test system: MDA-MB-435 melanoma
- experimental_protocol: NCI-60 one-dose screen, 48 h (100 = growth as untreated, 0 = no growth, -100 = all killed)
- condition_description: 10 µM unless noted
- Procedure: Growth inhibition of the MDA-MB-435 human Melanoma tumor cell line is measured as a screen for anti-cancer activity. Cells are grown in 96 well plates and exposed to the test compound for 48 hours. Compounds are tested at a single concentration, which is 10^-5 M for most compounds. The reported endpoint is percent growth (GI% or GIPRCNT), where numbers from 0 - 100% represent growth inhibition, and numbers from -100% - 0 represent cell death. […]
This is part of a sample that, as a whole, favours compounds with a hit. Of some 83,000 tested, about 20% had one in any assay. Calls of active or inactive are those of the source. How the source made its calls: active means growth percent below 10; inactive means the rest.
quantity_kind: growth

• COc1ccc(-c2nc([C@@H](C)Sc3nc(N)cc(N)n3)c(C)s2)cc1OCCN1CCOCC1 = 110% (inactive)
• C[C@H]1[C@H](C)CC[C@]2(C(=O)Nc3ccc4ncccc4c3)CC[C@]3(C)C(=CC[C@@H]4[C@@]5(C)CCCNC(C)(C)[C@@H]5CC[C@]43C)[C@H]12 = -91.8% (active)
• COc1ccccc1NS(=O)(=O)c1cccc(C(=O)Nc2ccc(Br)cc2)c1 = 35.3% (inactive)

###

- System: SF-539 CNS
- experimental_protocol: NCI-60 one-dose screen, 48 h
- condition_description: 10 µM unless noted
This is part of a sample that, as a whole, favours compounds with a hit. Of some 83,000 tested, about 20% had one in any assay. Active and inactive are the calls of the source. How the source made its calls: active means growth percent below 10; inactive means the rest.
Outcome codes: active, inactive

• O=C1Nc2cc(-c3ccc(NC(=O)c4ccccc4)cc3)ccc2/C1=C/c1ccc[nH]1 = inactive
• Cc1cc2nc3c4cc(C=O)ccc4n(CCN(C)C)c3nc2cc1C = inactive
• Nc1c(C(=O)Nc2cccc3cnccc23)sc2nc3c(cc12)CN(Cc1ccccc1)CC3 = inactive
• COc1ccc(-c2[nH][nH]c(=O)c2-c2nc3ccccc3s2)cc1 = inactive
• COc1cc2oc(-c3cccc(C(=O)Nc4ccc(Br)cc4)c3)cc(=O)c2c(OC)c1OC = inactive
• COc1cc(CC(=O)n2ncc3ccc(N)cc32)cc(OC)c1OC = inactive
• COc1cc2c(=O)n(CCN)c3c4cc5c(cc4ccc3c2cc1OC)OCO5 = active
• O=c1ccc(-c2nc(N3CCOCC3)c3ccccc3n2)c[nH]1 = inactive
• O=C1c2ccc3c4c(ccc(c24)C(=O)N1CCCNCc1ccccc1Cl)C(=O)N(CCCNCc1ccccc1Cl)C3=O = active
• O=C1Nc2cc(-c3ccc(NC(=O)C4CC4)cc3)ccc2/C1=C/c1ccc[nH]1 = inactive
• CCc1ccc(-c2cn3ccnc3c(-c3ccc4ncn(Cc5ccccc5)c4c3)n2)cc1 = inactive

###

- Test system: HCT-15 colon
- experimental_protocol: NCI-60 one-dose screen, 48 h
- condition_description: 10 µM unless noted
- Description: Growth inhibition of the HCT-15 human tumor cell line is measured as a screen for anti-cancer activity. Cells are grown in 96 well plates and exposed to the test compound for 48 hours. Compounds are tested at a single concentration, which is 10^-5 M for most compounds. The reported endpoint is percent growth (GI% or GIPRCNT), where numbers from 0 - 100% represent growth inhibition, and numbers from -100% - 0 represent cell death. For example, a value of 40 represents 60% growth inhibition. […]
The panel holds about 83,000 compounds, 20% with a hit somewhere; the sample as a whole holds those more often. Calls of active or inactive are those of the source. Rule for the calls: active = growth percent below 10; inactive = the rest.
Classes used: yes (1) = active, no (0) = inactive

- O=C(Nc1ccc(-c2ccc3c(c2)NC(=O)/C3=C\c2ccc[nH]2)cc1)NC1CC1: no (0)
- COC(=O)CNC(=O)[C@]12CCC(C)(C)C[C@H]1C1=CC[C@@H]3[C@@]4(C)Cc5c([nH]c6ccccc56)C(C)(C)[C@@H]4CC[C@@]3(C)[C@]1(C)CC2: no (0)
- CCOC(=O)c1cc(C#N)n2ccc3ccccc3c12: no (0)
- Brc1ccc2[nH]cc(-c3cncn3CCc3ccccc3)c2c1: no (0)
- COc1ccc2c(c1)oc1c(C)c3c(c(C)c12)C(=O)N(N)C3=O: no (0)
- COC(=O)C(OC(C)=O)C(OC(C)=O)c1ccc(OC)c(OC)c1 (stereo not given): no (0)
- COc1ccc(/C=C/c2nc(Nc3cccc(NC(C)=O)c3)c3ccccc3n2)cc1: no (0)
- O=S(=O)(NCCNc1nccc(-c2c(-c3cccc(O)c3)nc3occn23)n1)c1ccc(C(F)(F)F)cc1: no (0)
- NS(=O)(=O)c1ccc(Cn2c(SCC(=O)N/N=C/c3ccccc3O)nc3ccccc3c2=O)cc1: no (0)
- COc1ccc(NC(=O)c2cc(NCc3cc(O)ccc3O)ccc2O)cc1: no (0)
- COc1ccc(C(=O)c2cc(C)c(OC)c(C)c2)c(OC)c1N(C(=O)CCl)C(=O)CCl: yes (1)
- O=C(CCN1CCCC1)Nc1ccc2c(NCc3ccccc3)c3ccccc3nc2c1: no (0)
- O=C(NNc1nc2c(F)cccc2n2cccc12)c1cnccn1: no (0)
- COC(=O)C1=C(C(=O)ON)[C@@H]2C=C[C@@]1([C@@H](Cc1ccccc1)Nc1ccccc1)O2: yes (1)
- CCN(CC)CCOc1ccc(NC(=O)C(C(C)C)N2C(=O)/C(=C/c3ccc(Br)cc3)SC2=S)cc1 (stereo not given): yes (1)
- COc1cc2cc(CN3CCN(c4nccc(-c5ccc6ccccc6c5)n4)CC3)c(=O)[nH]c2cc1OC: no (0)
- Cc1cccc(NC(=O)Nc2ccc(-n3cnc4cc(-c5ccc(O)cc5)ccc43)cc2)c1: no (0)
- COc1ccccc1NC(=O)C1CC(c2ccc(F)cc2)=NO1 (stereo not given): no (0)
- C/C(=N\NC(=O)CSc1nc2ccccc2c(=O)n1CCc1ccc(S(N)(=O)=O)cc1)c1ccccn1: no (0)
- O=S(=O)(Nc1ccc(-n2cnc3cc(-c4ccc(O)cc4)ccc32)cc1)c1ccccc1: no (0)

###

- System: MOLT-4 leukemia
- experimental_protocol: NCI-60 one-dose screen, 48 h (100 = growth as untreated, 0 = no growth, -100 = all killed)
- condition_description: 10 µM unless noted
Compounds without any hit were thinned out: in the full panel of roughly 83,000, 20% have a hit.
Catalogue of growth values
quantity_kind: growth (%)

• COc1cc2nc(-c3ccc(C(F)(F)F)cc3)cc(OCCN3CCCCC3)c2cc1OC = 65.3
• Cc1cccc(NC(=O)Nc2ccc(-c3ccc4c(c3)NC(=O)/C4=C\c3ccc[nH]3)cc2)c1 = 53.8
• N#Cc1cc(-c2nc3ccccc3s2)c(=O)n(NS(=O)(=O)c2ccccc2)c1N = 107
• c1ccc2c(-c3nccs3)c[nH]c2c1 = 91.8
• Brc1ccc(Nc2csc(-c3ccccn3)n2)cc1 = 96.6
• C=C1C(=O)O[C@H]2[C@H]1CC/C(C(=O)NCCCCCNC(=O)/C1=C/CC[C@@]3(C)O[C@H]3[C@H]3OC(=O)C(=C)[C@@H]3CC1)=C\CC[C@@]1(C)O[C@@H]21 = 96.2
• COc1ccc(CC(C)=C(c2ccc(OCCN3CCCCCC3)cc2)c2ccc(OCCN3CCCCCC3)cc2)cc1 = -67.5
• COc1cccc(-c2cc(C(=O)Nc3ccc(/C=C/c4ccc(OC5CCN(C)CC5)cc4)cc3)ccc2OC)c1 = -36.4

###

- Test system: SK-MEL-5 melanoma
- experimental_protocol: NCI-60 one-dose screen, 48 h
- condition_description: 10 µM unless noted
Compounds without any hit were thinned out: in the full panel of roughly 83,000, 20% have a hit. Activity calls are given as the source filed them. How the source made its calls: active means growth percent below 10; inactive means the rest.
Possible outcomes: active, inactive

* COc1cc2nc(-c3ccc(Cl)cc3)cc(OCCCN3CCCCC3)c2cc1OC | active
* CCOC(=O)c1cc(C(=O)c2cc(OC)cc(OC)c2)n2ccc3ccccc3c12 | inactive
* COc1cc(/C=C\C(=O)O)ccc1OCc1ccccc1 | inactive
* CC(=O)c1ccc(NS(=O)(=O)c2cccc(C(=O)Nc3ccc(Br)cc3)c2)cc1 | active
* COc1ccc2c(c1)oc1c(C)c3c(c(C)c12)C(=O)N(N)C3=O | active
* CC/C(=C\c1ccc(OC)cc1)C(=O)c1ccc(OC)cc1 | inactive
* O=C(Nc1ccccc1)Nc1ccc2cc3ccc(NC(=O)Nc4ccccc4)cc3nc2c1 | inactive
* Cn1cc(-c2nc(-c3c[nH]c4c(Cl)nccc34)cs2)c2cc(F)ccc21 | inactive
* Brc1ccc(Nc2csc(-c3ccccn3)n2)cc1 | inactive
* O=C(N/N=C/c1ccc(Oc2ccccc2)cc1)c1cnn2c1NC(c1ccccc1)C2 (configuration not stated) | inactive
* O=C1/C=C/[C@@H](O)[C@@H]2C[C@@H](O)C[C@H]2/C=C/CCC[C@H](CCc2cccc3ccccc23)O1 | active
* COc1cc2oc(-c3cccc(C(=O)Nc4ccc(Cl)cc4)c3)cc(=O)c2c(O)c1OC | inactive
* CCN1C(=O)N(CC)C2Nn3c(s/c(=C\c4ccc(OC)cc4)c3=O)=NC21 (configuration not stated) | inactive
* CCN(c1ccccc1)S(=O)(=O)c1cc([N+](=O)[O-])ccc1Cl | inactive
* COc1cc(/C=N/NC(=O)c2cnn3c2NC(c2ccccc2)C3)ccc1Oc1ccccc1 (configuration not stated) | inactive
* COc1ccc2nc(-c3ccc(-c4noc(-c5cc(OC)c(OC)c(OC)c5)n4)cc3)[nH]c2c1 | inactive
* O=C(/C=C/c1ccc[nH]1)c1ccc(-n2ccc(C(F)(F)F)n2)c(F)c1 | inactive
